METHOD SUMMARY: in vitro;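 also: MTT reduction read as absorbance at 595 nm, blank-corrected and expressed as percent growth relative to the time-zero cell reading, triplicate wells per concentration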
MEASUREMENT CONTEXT: human
Bridge positions count the residues as written; N and C are the ends. Square brackets hold non-standard residues; d marks the D form. Peptide text beside a SMILES is read from it. 2Nal = N[C@@H](Cc1ccc2ccccc2c1)C(=O)O; Cit = NC(=O)NCCC[C@H](N)C(=O)O
READOUT KIND: GI50 at 48 h (µM)

1) N=C(N)NCCC[C@@H]1NC(=O)CNC(=O)[C@@H]2CCCN2C(=O)[C@H]2CCCN2C(=O)[C@H](CCCCN)NC(=O)[C@H](CCCNC(N)=O)NC(=O)[C@H](Cc2ccc(O)cc2)NC(=O)[C@@H]2CSSC[C@H](NC(=O)[C@H](CCCNC(N)=O)NC1=O)C(=O)N[C@@H](CCCNC(=N)N)C(=O)NCC(=O)N1CCC[C@@H]1C(=O)N[C@@H](CCCNC(=N)N)C(=O)N[C@@H](CCCNC(=N)N)C(=O)N[C@@H](Cc1ccc3ccccc3c1)C(=O)N2 [Ex. 114] (cyclo(GR[Cit]CRG[dP]RR[2Nal]CY[Cit]K[dP]P); disulfide 4-11) ... 67

====

This listing pairs compounds with measured GI50 at 48 h.
METHOD SUMMARY: in vitro
MEASUREMENT CONTEXT: human
Bridge positions count the residues as written; N and C are the ends. Square brackets hold non-standard residues; d marks the D form. Peptide text beside a SMILES is read from it. 2Nal = N[C@@H](Cc1ccc2ccccc2c1)C(=O)O; Cit = NC(=O)NCCC[C@H](N)C(=O)O
READOUT KIND: GI50 at 48 h (µM)

1) N=C(N)NCCC[C@@H]1NC(=O)[C@@H]2CSSC[C@H](NC(=O)[C@H](Cc3ccc4ccccc4c3)NC(=O)[C@H](CCCNC(=N)N)NC(=O)[C@H](CCCNC(=N)N)NC(=O)[C@H]3CCCN3C(=O)CNC1=O)C(=O)N[C@@H](Cc1ccc(O)cc1)C(=O)N[C@@H](CCC(N)=O)C(=O)N[C@@H](CCCCN)C(=O)N1CCC[C@@H]1C(=O)N1CCC[C@H]1C(=O)N[C@@H](Cc1ccc(O)cc1)C(=O)N[C@@H](CCCNC(=N)N)C(=O)N[C@@H](Cc1c[nH]c3ccccc13)C(=O)N2 [Ex. 73] (cyclo(YRWCRG[dP]RR[2Nal]CYQK[dP]P); disulfide 4-11) ... 20
2) N=C(N)NCCC[C@@H]1NC(=O)[C@@H]2CSSC[C@H](NC(=O)[C@H](Cc3ccc4ccccc4c3)NC(=O)[C@H](CCCNC(=N)N)NC(=O)[C@H](CCCNC(=N)N)NC(=O)[C@H]3CCCN3C(=O)CNC1=O)C(=O)N[C@@H](Cc1ccc(O)cc1)C(=O)N[C@@H](CCC(N)=O)C(=O)N[C@@H](CCCCN)C(=O)N1CCC[C@@H]1C(=O)N1CCC[C@H]1C(=O)N[C@@H](Cc1c[nH]c3ccccc13)C(=O)N[C@@H](CCCNC(=N)N)C(=O)N[C@@H](CCCNC(N)=O)C(=O)N2 [Ex. 66] (cyclo(WR[Cit]CRG[dP]RR[2Nal]CYQK[dP]P); disulfide 4-11) ... 46
3) N=C(N)NCCC[C@@H]1NC(=O)[C@@H]2CSSC[C@H](NC(=O)[C@H](Cc3c[nH]c4ccccc34)NC(=O)[C@H](CCCNC(=N)N)NC(=O)[C@H](CCCNC(=N)N)NC(=O)[C@H]3CCCN3C(=O)CNC1=O)C(=O)N[C@@H](Cc1ccc(O)cc1)C(=O)N[C@@H](CCCNC(N)=O)C(=O)N[C@@H](CCC(N)=O)C(=O)N1CCC[C@@H]1C(=O)N1CCC[C@H]1C(=O)N[C@@H](Cc1ccc(O)cc1)C(=O)N[C@@H](CCCNC(=N)N)C(=O)N[C@@H](CCCNC(N)=O)C(=O)N2 [Ex. 121] (cyclo(YR[Cit]CRG[dP]RRWCY[Cit]Q[dP]P); disulfide 4-11) ... 79
